Cited source for all entries: patent US12589092B2

assay: in vivo; settings: male, SD, rat, po, 3 mg/kg

SMILES DATA: CC(=O)c1c(C)c2cnc(Nc3ccc4c(c3)OC[C@@H]3CN(C5CCN(C)CC5)CCN43)nc2n(C2CCCC2)c1=O
AUC(0-t) / ng·h/mL: 1910

====

assay: Pharmacokinetic study in rats (intragastrical administration, plasma LC-MS/MS); settings: male, SD, rat, po, 3 mg/kg

COMPOUND: CC(=O)c1c(C)c2cnc(Nc3ccc4c(c3)OC[C@H]3CN(C5CCOCC5)CCN43)nc2n(C2CCCC2)c1=O
Tmax, h: 2
--
COMPOUND: CC(=O)c1c(C)c2cnc(Nc3ccc4c(c3)OC[C@@H]3CN(C5CCNCC5)CCN43)nc2n(C2CCCC2)c1=O
Tmax, h: 5.33
--
COMPOUND: CC(=O)c1c(C)c2cnc(Nc3ccc4c(c3)OC[C@@H]3CN(C5CN(C(C)=O)C5)CCN43)nc2n(C2CCCC2)c1=O [Compound 11S]
Tmax, h: 2
--
COMPOUND: CC(=O)c1c(C)c2cnc(Nc3cc(F)c4c(c3)OC[C@@H]3CN(C5CCN(C)CC5)CCN43)nc2n(C2CCCC2)c1=O
Tmax, h: 12
--
COMPOUND: CC(=O)c1c(C)c2cnc(Nc3ccc4c(c3)OC[C@@H]3CN(C5CCOCC5)CCN43)nc2n(C2CCCC2)c1=O
Tmax, h: 3
--
COMPOUND: CC(=O)c1c(C)c2cnc(Nc3ccc4c(c3)OC[C@@H]3CN(C5CN(C)C5)CCN43)nc2n(C2CCCC2)c1=O
Tmax, h: 9.33
--
COMPOUND: CC(=O)c1c(C)c2cnc(Nc3ccc4c(c3)OC[C@@H]3CN(C5CCN(C6CC6)CC5)CCN43)nc2n(C2CCCC2)c1=O
Tmax, h: 6.67
--
COMPOUND: CC(=O)c1c(C)c2cnc(Nc3ccc4c(c3)OC[C@H]3CN(C5CCN(C(C)=O)CC5)CCN43)nc2n(C2CCCC2)c1=O
Tmax, h: 6.67
--
COMPOUND: CCN1CCC(N2CCN3c4ccc(Nc5ncc6c(C)c(C(C)=O)c(=O)n(C7CCCC7)c6n5)cc4OC[C@@H]3C2)CC1
Tmax, h: 12
--
COMPOUND: CC(=O)c1c(C)c2cnc(Nc3ccc4c(c3)OC[C@@H]3CN(C5CN(S(C)(=O)=O)C5)CCN43)nc2n(C2CCCC2)c1=O [Compound 14S]
Tmax, h: 1.33
--
COMPOUND: CC(=O)c1c(C)c2cnc(Nc3ccc4c(c3)OC[C@@H]3CN(C5COC5)CCN43)nc2n(C2CCCC2)c1=O [Compound 13S]
Tmax, h: 1.83
--
COMPOUND: CC(=O)c1c(C)c2cnc(Nc3ccc4c(c3)OC[C@@H]3CN(C5CCN(C(C)=O)CC5)CCN43)nc2n(C2CCCC2)c1=O
Tmax, h: 6
--
COMPOUND: CC(=O)c1c(C)c2cnc(Nc3ccc4c(c3)OCC3CNCCN43)nc2n(C2CCCC2)c1=O (stereo not shown) [Ref-B, reference compound]
Tmax, h: 3.33
